Source: PubChem BioAssay AID1159580

assay: chemical genetic growth profiling, strain panel (AID 1159580);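 note: tested at 20 µM; growth read once vehicle control cultures reached saturation at 30 °C; 1 = growth at the plate median or of vehicle wells; lower values mean less growth of the strain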
test_context: S. cerevisiae deletion strains, growth OD, locus YCL016C, strain dcc1, active compounds read low
The campaign covered roughly 5,500 compounds. About 2,000 (36%) were called active. Roughly 18% stayed inconclusive and do not appear here. The list shows a part of the results.
value_type: normalized growth

- compound: "O=C1C=C2C(=CCOC2O)O1 (stereo unspecified)"
  value_type: "normalized growth"
  measured: 0.73
- compound: "CCCCCCC(C)OC(=O)COc1ccc(Cl)cc1Cl (stereo unspecified)"
  value_type: "normalized growth"
  measured: 0.988
- compound: "COC(=O)c1c(C)cc(O)cc1O"
  value_type: "normalized growth"
  measured: 1.01
- compound: "C=CC1C2=CCOC(=O)C2=COC1OC1OC(CO)C(O)C(O)C1O (stereo unspecified)"
  value_type: "normalized growth"
  measured: 1.01
- compound: "C=C(C)[C@H]1COc2cc3oc(=O)ccc3cc2O1"
  value_type: "normalized growth"
  measured: 0.736
- compound: "CCCCCCCCCCCC1=C(O)C(=O)C=C(O)C1=O"
  value_type: "normalized growth"
  measured: 0.886
- compound: "OC1CC2CCCC(C1)N2Cc1ccccc1 (stereo unspecified)"
  value_type: "normalized growth"
  measured: 0.998
- compound: "CC(=O)OCC1=C(C(=O)O)N2C(=O)[C@@H](NC(=O)Cc3cccs3)[C@H]2SC1"
  value_type: "normalized growth"
  measured: 0.986
- compound: "C[C@]12CCC3c4ccc(O)cc4CCC3C1CC[C@@H]2O (stereo partly specified)"
  value_type: "normalized growth"
  measured: 0.975
- compound: "C[C@@H]1O[C@@H](OC[C@H]2OC(Oc3c(-c4ccc(OCCO)c(OCCO)c4)oc4cc(OCCO)cc(O)c4c3=O)[C@H](O)[C@@H](O)[C@@H]2O)[C@H](O)[C@H](O)[C@H]1O (stereo partly specified)"
  value_type: "normalized growth"
  measured: 0.984
- compound: "CC(=O)O[C@@H]1CC2C(C)(C)C(=O)C=C[C@]2(C)C2CC[C@@]3(C)[C@H](c4ccoc4)OC(=O)[C@H]4O[C@]43[C@@]21C (stereo partly specified)"
  value_type: "normalized growth"
  measured: 1.02
- compound: "NC(N)=NC(=O)c1nc(Cl)c(N)nc1N"
  value_type: "normalized growth"
  measured: 0.997
- compound: "CC1(C)C(=O)C=C[C@@]2(C)C1CC(=O)[C@]1(C)C2CC[C@@]2(C)[C@H](c3ccoc3)OC(=O)[C@H]3O[C@]321 (stereo partly specified)"
  value_type: "normalized growth"
  measured: 0.988
- compound: "CC(CC(C(N)=O)(c1ccccc1)c1ccccc1)N(C)C (stereo unspecified)"
  value_type: "normalized growth"
  measured: 0.989
- compound: "Cc1cc(OC(=O)c2c(C)cc(O)cc2O)cc(O)c1C(=O)O"
  value_type: "normalized growth"
  measured: 0.992
- compound: "CC(=O)O[C@]1(C(C)=O)CCC2C3C=C(Cl)C4=CC(=O)[C@@H]5C[C@@H]5[C@]4(C)C3CC[C@@]21C (stereo partly specified)"
  value_type: "normalized growth"
  measured: 0.992
- compound: "CC1(C)O[C@H]2CC(=O)OC[C@]23[C@H]2CC[C@@]4(C)[C@H](c5ccoc5)OC(=O)[C@H]5O[C@]54[C@]2(C)C(=O)C[C@@H]13"
  value_type: "normalized growth"
  measured: 0.99
- compound: "CCCCOc1cc(C(=O)NCCN(CC)CC)c2ccccc2n1"
  value_type: "normalized growth"
  measured: 1.01
- compound: "CN[C@@H]1C(O)[C@@H](O[C@@H]2[C@@H](O)[C@H](O[C@H]3OC(CN)=CC[C@H]3N)[C@@H](N)C[C@H]2N)OC[C@]1(C)O (stereo partly specified)"
  value_type: "normalized growth"
  measured: 0.997
- compound: "COC(=O)c1c(C)cc(OC)cc1O"
  value_type: "normalized growth"
  measured: 0.966
- compound: "O=c1ccc2cc(OC3OC(CO)C(O)C(O)C3O)c(O)cc2o1 (stereo unspecified)"
  value_type: "normalized growth"
  measured: 0.979

====

assay: chemical genetic growth profiling, strain panel (AID 1159580);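 note: tested at 20 µM; growth read once vehicle control cultures reached saturation at 30 °C; 1 = growth at the plate median or of vehicle wells; lower values mean less growth of the strain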
test_context: S. cerevisiae deletion strains, growth OD, locus YNL322C, strain KRE1 (second series), active compounds read low
About 2,000 (36%) of roughly 5,500 compounds were called active. Inconclusive results (about 18%) are left out. Some of the results follow.
For each record, check the reported normalized growth: if it is below 1 write MET, else write NOT MET.

- compound: "COC(=O)c1c(C)cc(OC)cc1O"
  label: "MET"
- compound: "CCC(=O)c1c(O)cc(O)cc1O"
  label: "MET"
- compound: "C[C@@H]1O[C@@H](OC[C@H]2OC(Oc3c(-c4ccc(OCCO)c(OCCO)c4)oc4cc(OCCO)cc(O)c4c3=O)[C@H](O)[C@@H](O)[C@@H]2O)[C@H](O)[C@H](O)[C@H]1O (some centres undefined)"
  label: "MET"
- compound: "C=C(C)[C@H]1COc2cc3oc(=O)ccc3cc2O1"
  label: "MET"
- compound: "COc1cc(OC)c2c(=O)c(O)c(-c3ccc(OC)c(OC)c3)oc2c1"
  label: "MET"
- compound: "CC(=O)[C@@]1(O)CCC2C3C[C@H](C)C4=CC(=O)C=CC4(C)[C@@]3(F)[C@@H](O)C[C@@]21C (some centres undefined)"
  label: "MET"
- compound: "NC(=NCCC[C@H](N)C(=O)O)N[N+](=O)[O-]"
  label: "NOT MET"
- compound: "CCOC(=O)c1c(C)cc(OC)cc1O"
  label: "MET"
- compound: "C[C@]12CCC3c4ccc(O)cc4CCC3C1C[C@@H](O)[C@@H]2O (some centres undefined)"
  label: "NOT MET"
- compound: "COc1ccc2c(c1)CCC1C2CC[C@@]2(C)C1CC[C@@H]2O (some centres undefined)"
  label: "MET"
- compound: "CCCCCC(=O)Cc1cc(O)cc(O)c1C(=O)Oc1cc(CC(=O)CCCCC)c(C(=O)O)c(OC)c1"
  label: "MET"
- compound: "CC(C)c1c(O)c(-c2cc3c(c(C(C)C)c2O)CCC2C(C)(C)CCC[C@]32C)cc2c1CCC1C(C)(C)CCC[C@]21C (some centres undefined)"
  label: "MET"
- compound: "CC1CC[C@]2(NC1)O[C@H]1CC3C4CC[C@H]5C[C@@H](O)CC[C@]5(C)C4CC[C@]3(C)[C@H]1[C@@H]2C (some centres undefined)"
  label: "MET"
- compound: "CC[n+]1c(-c2ccccc2)c2cc(N)ccc2c2ccc(N)cc21"
  label: "MET"
- compound: "CC(C)c1c(O)ccc2c1CCC1C(C)(C)CCC[C@]21C (some centres undefined)"
  label: "NOT MET"
- compound: "CCOC(=O)c1c(C)cc(O)cc1O"
  label: "MET"

====

Each entry below carries its reported normalized growth.
assay: chemical genetic growth profiling, strain panel (AID 1159580);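 note: tested at 20 µM; growth read once vehicle control cultures reached saturation at 30 °C; 1 = growth at the plate median or of vehicle wells; lower values mean less growth of the strain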
test_context: S. cerevisiae deletion strains, growth OD, locus YGL240W, strain doc1, active compounds read low
The whole screen tested about 5,500 compounds, of which about 2,000 (36%) were called active. Not shown: some 18% with an inconclusive outcome. This is one part of the list.
value_type: normalized growth

- smiles_record: "COc1cc(OC)c2ccc(=O)oc2c1"
  value_type: "normalized growth"
  measured: 0.868
- smiles_record: "O=c1ccc2c(O)c3ccoc3cc2o1"
  value_type: "normalized growth"
  measured: 0.99
- smiles_record: "CCCCCc1c2c(cc(O)c1C(=O)O)OC(=O)c1c(cc(OC)cc1C(=O)CCCC)O2"
  value_type: "normalized growth"
  measured: 0.964
- smiles_record: "COc1c2ccoc2cc2oc(=O)ccc12"
  value_type: "normalized growth"
  measured: 0.896
- smiles_record: "CCc1cc(C(N)=S)ccn1"
  value_type: "normalized growth"
  measured: 0.978
- smiles_record: "COc1cc2occc2c2oc(=O)ccc12"
  value_type: "normalized growth"
  measured: 0.92
- smiles_record: "CCCCCC(=O)Cc1cc(O)cc(O)c1C(=O)Oc1cc(CC(=O)CCCCC)c(C(=O)O)c(OC)c1"
  value_type: "normalized growth"
  measured: 0.77

====

assay: chemical genetic growth profiling, strain panel (AID 1159580);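 note: tested at 20 µM; growth read once vehicle control cultures reached saturation at 30 °C; 1 = growth at the plate median or of vehicle wells; lower values mean less growth of the strain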
test_context: S. cerevisiae deletion strains, growth OD, locus YMR263W, strain SAP30, active compounds read low
The campaign covered roughly 5,500 compounds. About 2,000 (36%) were called active. Another 18% or so got no clear call; they are omitted. The list shows a part of the results.
For each record, check the reported normalized growth: if it is below 1 write 1, else write -1.

- compound: "COC(=O)[C@]1(C)CCC[C@]2(C)c3ccc(C(C)C)cc3C(=O)CC12 (stereo partly specified)"
  label: 1
- compound: "O=C(O[C@@H]1Cc2c(O)cc(O)cc2O[C@@H]1c1cc(O)c(=O)c2c(O)c(O)cc([C@H]3Oc4cc(O)cc(O)c4C[C@H]3O)c2c1)c1cc(O)c(O)c(O)c1"
  label: 1
- compound: "CCOC(=O)c1sc(S(C)(=O)=O)c2c1CCCC2O (stereo unspecified)"
  label: -1
- compound: "COC(=O)[C@@]1(C)CCC[C@]2(C)c3ccc(O)c(C(C)C)c3CCC12 (stereo partly specified)"
  label: 1
- compound: "CC1CC[C@]2(NC1)O[C@H]1CC3C4CC[C@H]5C[C@@H](O)CC[C@]5(C)C4CC[C@]3(C)[C@H]1[C@@H]2C (stereo partly specified)"
  label: 1
- compound: "CCCCCCCCCCCC1=C(O)C(=O)C=C(O)C1=O"
  label: 1
- compound: "COc1ccc2c(c1)CCC1C2CC[C@@]2(C)C1CC[C@@H]2O (stereo partly specified)"
  label: 1
- compound: "O=C(O[C@@H]1Cc2c(O)cc(O)cc2O[C@@H]1c1cc(O)c(=O)c2c(O)c(O)cc([C@H]3Oc4cc(O)cc(O)c4C[C@H]3OC(=O)c3cc(O)c(O)c(O)c3)c2c1)c1cc(O)c(O)c(O)c1"
  label: 1
- compound: "CN1C(C)(C)CCCC1(C)C"
  label: -1
- compound: "O=C1C=C2C(=CCOC2O)O1 (stereo unspecified)"
  label: 1
